The entries below come with measured melting point values attached.

Here are 7 compounds together with their reported answers.
- compound: "COc1nccc(-c2ccc3cc(N(C)C)ccc3c2)c1C#N"
  melting point: "150 to 151 °C"
- compound: "CN(C)c1ccc2cc(-c3ccnc(Cl)c3C#N)ccc2c1"
  melting point: "198 to 200 °C"
- compound: "CC(=C(C#N)C#N)c1ccc2cc(N(C)C)ccc2c1 [DDNP]"
  melting point: "154.5 to 155 °C"
- compound: "CN(C)c1ccc2cc(-c3ccnc(SCCO)c3C#N)ccc2c1"
  melting point: "210 to 212 °C"
- compound: "CN(C)/C=C/C(=C(C#N)C#N)c1ccc2cc(N(C)C)ccc2c1"
  melting point: "213 to 215 °C"
- compound: "CN(C)c1ccc2cc(-c3ccn4ccnc4c3C#N)ccc2c1"
  melting point: "268 to 269 °C"
- compound: "CN(C)c1ccc2cc(-c3ccnc(N)c3C#N)ccc2c1.O"
  melting point: "256 to 257 °C"

Read the next record carefully.
Recall and state the measured melting point for CN(C)c1ccc2cc(C(/C=C\NCCO)=C(C#N)C#N)ccc2c1 . 168 to 170 °C

====

# Test system: senile plaques
# assayNotes: Digital autoradiography with [18F]FDDNP of AD brain specimens pretreated with nonradioactive agents
# Format: binding, human
# runConditions: AD brain specimens pretreated with 40 μM agent for 60 min
attributeMeasured: specific binding of [18F]FDDNP to regions of gray matter with senile plaques

Here are 4 compounds together with their reported answers.
- compound: "CC(C)Cc1ccc([C@@H](C)C(=O)O)cc1 [(R)-ibuprofen]"
  observedValue: "significantly reduced"
- compound: "Cc1ccc2c(c1)sc(-c1ccc(N(C)C)cc1)[n+]2C.[Cl-]"
  observedValue: "minimal effect"
- compound: "O=C(O)Cc1ccccc1Nc1c(Cl)cccc1Cl"
  observedValue: "minimal effect"
- compound: "CC(C)Cc1ccc([C@H](C)C(=O)O)cc1 [(S)-ibuprofen]"
  observedValue: "significantly reduced"

Quote senile plaques specific binding of [18F]FDDNP to regions of gray matter with senile plaques for entry Nc1c(/N=N/c2ccc(-c3ccc(/N=N/c4cc(S(=O)(=O)O)c5ccccc5c4N)cc3)cc2)cc(S(=O)(=O)O)c2ccccc12 . minimal effect

This collection of values is drawn from patent US20070053831A1.
